test: Human HepG2 cell viability assay in 384 well format; type: toxicity, cell-based; design: dose 125 nL, time 70.5 hour; concentration not given beside the values; details: HepG2 cells, read-out: Inhibition
Recorded metric: cytotoxicity at 70.5 h (%)
One number for each entry, in %.

Illustrative cases are given below, each with its answer.
# Molecule, cytotoxicity at 70.5 h, %
data = [
    ("Cn1cc(CCNCC2CNc3ccnn3C2)cn1 (configuration not stated)", 1.67),
    ("CCc1cnc(CNc2ccc(C(=O)NCc3ccco3)cc2C)o1", -8.92),
    ("Cc1ncc2c(n1)CN(c1ncnc3[nH]ccc13)CC2", 1.91),
    ("CCC(O)CN1CCN(C(=O)c2cccc3c2OCC(=O)N3)CC1 (configuration not stated)", 27.7),
    ("NC(=O)c1ccccc1Oc1cccc(C2CCCNC2)n1 (configuration not stated)", -4.29),
    ("CC1CS(=O)(=O)CCN1Cc1ccccc1N(C)C (configuration not stated)", -0.403),
]

Now take the following molecule into account.
Q: Return cytotoxicity at 70.5 h for the following molecule: `Cc1cc(CCC(=O)N2CCC(O)CC2)ccc1Br`
A: -0.947
